Experiment: photoluminescence quantum yield (fraction); solvent given as SMILES
Settings: in CO
Label scheme, based on photoluminescence quantum yield: low interval (below 0.04), middle interval (0.04 to below 0.5), high interval (0.5 or more)

State the class of the molecule shown: "Nc1ncnc2c1c(-c1ccc3ccccc3c1)nn2[C@H]1C[C@H](O)[C@@H](CO)O1"
middle interval

State the class of the molecule shown: "COc1ccc(/C=C/c2nc3ccccc3o2)cc1"
low interval

State the class of the molecule shown: "O=C([O-])c1ccccc1C1=c2cc3c4c(c2Oc2c1cc1c5c2CCCN5CCC1)CCC[N+]=4CCC3"
high interval

State the class of the molecule shown: "Cc1ccc(-c2nc(-c3ccc(O)cc3)[nH]c2-c2ccc(C)cc2)cc1"
middle interval

State the class of the molecule shown: "Cn1c(/C=C/c2ccc(/C=C/c3nc4ccccc4[nH]3)cc2)[n+](C)c2ccccc21"
middle interval

State the class of the molecule shown: "CN(C)CCN(Cc1c2ccccc2c(CN(CCN(C)C)c2ccc([N+](=O)[O-])cc2[N+](=O)[O-])c2ccccc12)c1ccc([N+](=O)[O-])cc1[N+](=O)[O-]"
low interval

State the class of the molecule shown: "COC(=O)c1ccc2c3ccc(C(=O)OC)c4c(C(=O)OC)ccc(c5ccc(C(=O)OC)c1c25)c43"
high interval

State the class of the molecule shown: "CCOC(=O)C(C(=O)OCC)C1=[N+]2C(=C(c3ccc(C)cc3)c3ccc(Cl)n3[B-]2(F)F)C=C1"
middle interval

State the class of the molecule shown: "CN(C)c1ccc2nc(-c3ccc(C(=O)Nc4ccccc4)cc3)sc2c1"
high interval

State the class of the molecule shown: "CCOC(=O)CC[N+]1=c2cc3c(cc2CCC1)=Cc1c(c2cc4c5c(c2oc1=O)CCCN5CCC4)O3"
low interval

State the class of the molecule shown: "CCOC(=O)COc1ccc(/C=C/c2c(CC)c(C)c3n2[B-](F)(F)[N+]2=C(c4[nH]c(C)c(CC)c4C)c4ccccc4C2=C3C)cc1"
middle interval

State the class of the molecule shown: "O=C1c2ccccc2-c2cccc(O)c21"
low interval

State the class of the molecule shown: "CC1(C)C(/C=C/C=C/C=C/C=C2/N(c3ccc(S(=O)(=O)[O-])cc3)c3ccc(S(=O)(=O)[O-])cc3C2(C)C)=[N+](c2ccc(S(=O)(=O)[O-])cc2)c2ccc(S(=O)(=O)[O-])cc21"
middle interval

State the class of the molecule shown: "CCCCCCN(CCCCCC)c1ccc(C#Cc2ccc(C(F)(F)F)cc2)cc1"
low interval

---

Assay: photoluminescence quantum yield (fraction); solvent given as SMILES
Conditions: in Cc1ccccc1
PARAMETER MEASURED: photoluminescence quantum yield

INPUT SMILES: COc1cc(C2=C(c3cc(OC)c(OC)c(OC)c3)C(c3ccc(C(C)(C)C)cc3)=[N+]3C2=Nc2c(-c4cc(OC)c(OC)c(OC)c4)c(-c4cc(OC)c(OC)c(OC)c4)c(-c4ccc(C(C)(C)C)cc4)n2[B-]3(F)F)cc(OC)c1OC
PARAMETER MEASURED: photoluminescence quantum yield
MEASURED: 0.001

# molecule "Cn1nc(-c2ccccc2)c2n[nH]nc2/c1=N\c1ccccn1" ; its photoluminescence quantum yield = 0.07

# molecule "CCn1c2ccccc2c2cc(C#Cc3cc(C#Cc4ccc5c(c4)c4ccccc4n5CC)ncn3)ccc21" ; its photoluminescence quantum yield = 0.84

# molecule "F[B-]1(F)Oc2ccccc2-c2cnc3ccccc3[n+]21" ; its photoluminescence quantum yield = 0.086

# molecule "CCC1=C(C)C2=C(c3cc(C(=O)Cl)cc(C4=C5C(C)=C(CC)C(C)=[N+]5[B-](F)(F)n5c(C)c(CC)c(C)c54)c3)c3c(C)c(CC)c(C)n3[B-](F)(F)[N+]2=C1C" ; its photoluminescence quantum yield = 0.83

# molecule "CCCCCCCCN1c2ccc(C#Cc3cc(C(F)(F)F)cc(C(F)(F)F)c3)cc2Sc2cc(C=O)ccc21" ; its photoluminescence quantum yield = 0.67

# molecule "CC(=O)c1c2c(cc3ccc(N(C)C)cc13)CCC2" ; its photoluminescence quantum yield = 0.62

---

Test: photoluminescence quantum yield (fraction); solvent given as SMILES
Conditions: in CCOC(C)=O
PARAMETER MEASURED: photoluminescence quantum yield

INPUT SMILES: N#Cc1cc2ccc(O)cc2oc1=O
photoluminescence quantum yield: 0.0597
--
INPUT SMILES: CCn1c2ccccc2c2cc(C#Cc3cc(C#Cc4ccc5c(c4)c4ccccc4n5CC)nc(S(C)(=O)=O)n3)ccc21
photoluminescence quantum yield: 0.75

Proceed to the following item.
# compound "CCC1=C(C)C2=C(C)c3c(I)c(I)c(I)n3[B-](F)(F)[N+]2=C1C" ; its photoluminescence quantum yield = 0.072

---

Measured photoluminescence quantum yield accompanies every entry in the list below.
Assay: photoluminescence quantum yield (fraction); solvent given as SMILES
Details: in C1CCOC1
Enter the number alone.

Some solved cases for reference:
COMPOUND: O=S1(=O)C(c2ccsc2)=C(c2ccsc2)c2ccccc21
photoluminescence quantum yield: 0.005
//
COMPOUND: CCCCC1=Cc2c3ccc4cccc5ccc(c6cc(-c7ccccc7)n(c26)P1(=O)c1ccccc1)c3c45 (stereo not given)
photoluminescence quantum yield: 0.51
//
COMPOUND: CCCCCCCCCCCCOc1cc(C(=O)Nc2ccc(-c3ccc4c(c3)C(=O)c3cc(-c5ccc(NC(=O)c6cc(OCCCCCCCCCCCC)c(OCCCCCCCCCCCC)c(OCCCCCCCCCCCC)c6)cc5)ccc3-4)cc2)cc(OCCCCCCCCCCCC)c1OCCCCCCCCCCCC
photoluminescence quantum yield: 0.06
//
COMPOUND: COc1cc2c(cc1-c1ccccc1)Cc1c3c(c4c(c1-2)-c1cc(OC)c(-c2ccccc2)cc1C4)C(=O)N(CCC(C)C)C3=O
photoluminescence quantum yield: 0.53
//
COMPOUND: c1ccc(-c2cc(-c3ccc(-c4nc(-c5ccccn5)c(-c5ccccn5)[nH]4)cc3)cc(-c3ccccn3)n2)nc1
photoluminescence quantum yield: 0.06

# compound "O=c1c2ccccc2sc2ccccc12" ; its photoluminescence quantum yield = 0.012

# compound "F[B-]1(F)Oc2c(-c3cccc4c3O[B-](F)(F)[n+]3c(-c5ccccc5)c(-c5ccccc5)n(-c5ccc(C(F)(F)F)cc5)c3-4)cccc2-c2n(-c3ccc(C(F)(F)F)cc3)c(-c3ccccc3)c(-c3ccccc3)[n+]21" ; its photoluminescence quantum yield = 0.68

# compound "CCC1(CC)c2cc(N(c3ccccc3)c3ccccc3)ccc2-c2c1c1c(c3c2C(CC)(CC)c2cc(N(c4ccccc4)c4ccccc4)ccc2-3)C(CC)(CC)c2cc(N(c3ccccc3)c3ccccc3)ccc2-1" ; its photoluminescence quantum yield = 0.27

# compound "N#CC1=c2c3cccc4cccc(c43)n2[B-](F)(F)[n+]2ccccc21" ; its photoluminescence quantum yield = 0.86

# compound "N#Cc1cc(-n2c3ccccc3c3cc(Br)ccc32)c(-n2c3ccccc3c3cc(Br)ccc32)cc1C#N" ; its photoluminescence quantum yield = 0.057

# compound "CC(C)(C)c1cc2c3c(c1)c1cc(C(C)(C)C)cc4c1n3B1c3c-2cccc3-c2cc(C(C)(C)C)cc3c5cc(C(C)(C)C)cc-4c5n1c23" ; its photoluminescence quantum yield = 0.25

# compound "CN1C(=O)c2cccc3c(-n4c5ccccc5c5ccccc54)ccc(c23)C1=O" ; its photoluminescence quantum yield = 0.031

# compound "COc1c2ccccc2c(OC)c2c(C#CC(C)(C)C)c3cc4ccccc4cc3c(C#CC(C)(C)C)c12" ; its photoluminescence quantum yield = 0.11

# compound "COc1ccc(N(c2ccc(OC)cc2)c2ccc3ccc4c(B(c5c(C)cc(C)cc5C)c5c(C)cc(C)cc5C)ccc5ccc2c3c54)cc1" ; its photoluminescence quantum yield = 0.19

# compound "COc1cc2c(cc1C=C(C#N)C#N)c1ccccc1n2C" ; its photoluminescence quantum yield = 0.002

---

Assay: photoluminescence quantum yield (fraction); solvent given as SMILES
Conditions: in c1cc(-c2cccc(-n3c4ccccc4c4ccccc43)c2)cc(-n2c3ccccc3c3ccccc32)c1
Measured photoluminescence quantum yield accompanies every entry in the list below.

INPUT SMILES: O=C(c1ccc(N2c3ccccc3Oc3ccccc32)cc1)c1cccc(C(=O)c2ccc(N3c4ccccc4Oc4ccccc43)cc2)c1
photoluminescence quantum yield: 0.71
--
INPUT SMILES: CC(C)c1cc(C(C)C)c(B2c3cc(-n4c5ccccc5c5ccccc54)ccc3N(c3ccccc3)c3ccc(-n4c5ccccc5c5ccccc54)cc32)c(C(C)C)c1
photoluminescence quantum yield: 0.99

# molecule "CC1(C)c2ccccc2N(c2ccc(-c3cc(C#N)c(C#N)cc3-c3ccc(N4c5ccccc5C(C)(C)c5ccccc54)cc3)cc2)c2ccccc21" ; its photoluminescence quantum yield = 0.86

---

Assay: photoluminescence quantum yield (fraction); solvent given as SMILES
Conditions: in c1ccccc1
Measured photoluminescence quantum yield accompanies every entry in the list below.
Enter the number alone.

Some solved cases for reference:
MOLECULE: COc1ccc(-c2c3ccc([nH]3)c3nc(c(-c4ccc([N+](=O)[O-])cc4)c4ccc([nH]4)c4ccc([nH]4)c(-c4ccc(OC)cc4)c4ccc2o4)C=C3)cc1
photoluminescence quantum yield: 0.08
--
MOLECULE: CN(C)/C=N\c1ccc2c3c(cccc13)C(=O)c1ccccc1-2
photoluminescence quantum yield: 0.67
--
MOLECULE: O=C(c1ccc(N(c2ccccc2)c2ccccc2)cc1)[C@H]1[C@H](c2ccccc2)C[C@](O)(c2ccccn2)C[C@]1(O)c1ccccn1
photoluminescence quantum yield: 0.93

# molecule "CN(C)c1ccc2nc(-c3ccc(C(=O)O)cc3)sc2c1" ; its photoluminescence quantum yield = 0.85

# molecule "CCC1=C(C)C(=O)n2c1cc1c(C)c(CC(=O)OC)c(C)n1c2=O" ; its photoluminescence quantum yield = 1
